- Tested System: T1, recombinant human CTLA4-his protein (Acro biosystems, Cat#CT4-H5229) (human, UniProt P16410 37-162)
- T1 construct: bought recombinant protein; not shown: his tag
- T1 sequence (looked up): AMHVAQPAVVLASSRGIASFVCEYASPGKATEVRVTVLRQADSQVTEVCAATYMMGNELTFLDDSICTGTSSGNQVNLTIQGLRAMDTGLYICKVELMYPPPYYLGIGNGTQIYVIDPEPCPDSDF
- Experiment Description: BLI, Octet; antibody from cell supernatant on AHC sensor, CTLA4-his as analyte
Quantity Measured: Kd (nM)
Give bare numbers, in nM.

{"Binder": "huD1D5-V4 (antibody, human IgG4 S228P, kappa, V domains shown, humanized IgG4/kappa; tested as 293F cell supernatant on Octet; also called hu CTLA4 D1D5-V4) VH: EVQLVESGGGLVKPGGSLRLSCAASGFTFSDYGMAWVRQAPGKGLEWVSFISNLAYSVYYADTETGRFTISRDNAKNSLYLQMNSLRAEDTAVYYCARSGLPYAMDYWGQGTTVTVSS VL: DIQMTQSPSSLSASVGDRVTITCRASQDISNYLNWYQQKPGKTVKLLIYYISRLHSGVPSRFSGSGSGTDFTLTISSLQPEDVATYFCQQGRMLPWTFGGGTKVEIKR", "Reading Unit": "nM", "Kd": 4.36}
{"Binder": "huD1D5-V8 (antibody, human IgG4 S228P, kappa, V domains shown, humanized IgG4/kappa; tested as 293F cell supernatant on Octet; also called hu CTLA4 D1D5-V8) VH: EVQLVESGGGLVKPGGSLRLSCAASGFTFSDYGMAWVRQAPGKGLEWVSFISNLAYSVYYADTETGRFTISRDNAKNSLYLQMNSLRAEDTAVYYCARSGLPYAMDYWGQGTTVTVSS VL: DIQMTQSPSSLSASVGDRVTITCRASQDISNYLNWYQQKPGKVPKLLIYYISRLHSGVPSRFSGSGSGTDFTLTISSLQPEDVATYFCQQGRMLPWTFGGGTKVEIKR", "Reading Unit": "nM", "Kd": 68.1}

Dear colleague, could you send me Kd for each of the items below? Thanks.
1. huC1D1-V10 (antibody, human IgG4 S228P, kappa, V domains shown, humanized IgG4/kappa; tested as 293F cell supernatant on Octet; also called hu CTLA4 C1D1-V10) VH: EVQLVESGGGLVQPGRSLRLSCTASGFTFSDNWMNWVRQAPGKGLEWVAQIRNKPYNYETYYSDSVKGRFTISRDDSKSIAYLQMNSLKTEDTAVYYCTGGMDYWGQGTTVTVSS VL: DIQMTQSPSSLSASVGDRVTITCGASEIIYGALNWYQQKPGKVPKLLIYGATNLADGVPSRFSGSGSGTDFTLTISSLQPEDVATYYCQKILSPPPWTFGGGTKVEIKR
2. huD1D5-V12 (antibody, human IgG4 S228P, kappa, V domains shown, humanized IgG4/kappa; tested as 293F cell supernatant on Octet; also called hu CTLA4 D1D5-V12) VH: EVQLVESGGGLVKPGGSLRLSCAASGFTFSDYGMAWVRQAPGKGLEWVSFISNLAYSVYYADTETGRFTISRDNAKNSLYLQMNSLRAEDTAVYYCARSGLPYAMDYWGQGTTVTVSS VL: DIQMTQSPSSLSASVGDRVTITCRASQDISNYLNWYQQKPGKVPKLLIYYISRLHSGVPSRFSGSGSGTDFTLTISSLQPEDVATYYCQQGRMLPWTFGGGTKVEIKR

Response given:
1. 0.943
2. 37.4
